# systemUnderTest: Lsp from E. coli (Escherichia coli)
# Construct: The full-length Lsp clone from E. coli (residues 1-164); His6 with enterokinase cleavage site (pET19b) (N); made in house; host or cells: E. coli Lemo21 (DE3), pET19b vector
# experimentalProtocol: Lsp FRET activity assay, IC50 determination
# Type: biochemical
# conditionDescription: Table 2, variation of R3; read-out: IC50
measurementKind: IC50 (µM)
Answers are plain numbers, in µM.

Known results for compounds:
- moleculeSmiles: "CCCc1nnc(NC(=O)c2cc(OC)c(OC)cc2[N+](=O)[O-])s1"
  IC50 (µM): 26
- moleculeSmiles: "CCOC(=O)Cc1nnc(NC(=O)c2cc(OC)c(OC)cc2[N+](=O)[O-])s1"
  IC50 (µM): 78

Next compound, IC50 to be filled in.
Ask | # IC50 lookup, item CCCC(CCC)c1nnc(NC(=O)c2cc(OC)c(OC)cc2[N+](=O)[O-])s1
Reply | 1.1

* * *

# systemUnderTest: Lsp from E. coli (Escherichia coli, UniProt P00804)
# Construct: The full-length Lsp clone from E. coli (residues 1-164); His6 with enterokinase cleavage site (pET19b) (N); made in house; host or cells: E. coli Lemo21 (DE3), pET19b vector
# Sequence (P00804 whole entry, the tested form may be a part): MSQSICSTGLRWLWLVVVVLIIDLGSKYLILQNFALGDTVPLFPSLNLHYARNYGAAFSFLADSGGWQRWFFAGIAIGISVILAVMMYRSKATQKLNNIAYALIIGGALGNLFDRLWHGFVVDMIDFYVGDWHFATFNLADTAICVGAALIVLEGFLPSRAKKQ
# experimentalProtocol: Lsp FRET activity assay, IC50 determination
# Assay type: biochemical
# conditionDescription: Table 5, E = 100 nM; read-out: IC50
pIC50: −log10 of the molar value.
measurementKind: pIC50

Worked examples, 3 compounds total:
- compound: "CCC(CC)c1nnc(NC(=O)c2cc(Cl)c(Oc3ccc(O)cc3)cc2[N+](=O)[O-])s1 [Sk061-30-1]"
  systemUnderTest: "Lsp from E. coli (Escherichia coli, UniProt P00804)"
  pIC50: "< 5.40"
- compound: "CCC(CC)c1nnc(NC(=O)c2cc(Cl)c(OCCCCCCNC(=O)OC(C)(C)C)cc2[N+](=O)[O-])s1 [Sk061-54]"
  systemUnderTest: "Lsp from E. coli (Escherichia coli, UniProt P00804)"
  pIC50: "~5.64"
- compound: "CCC(CC)c1nnc(NC(=O)c2cc(Cl)c(OCCCCCCN)cc2[N+](=O)[O-])s1 [Sk061-45]"
  systemUnderTest: "Lsp from E. coli (Escherichia coli, UniProt P00804)"
  pIC50: "< 5.40"

As a next step, examine the compound that follows.
Ask | Given CCC(CC)c1nnc(NC(=O)c2cc(Cl)c(Oc3ccc(N)cc3)cc2[N+](=O)[O-])s1 [Sk061-32] , state its recorded pIC50.
Reply | ~5.40
